Tested on: N. gonorrhoeae WHO L
ASSAY_EXPLANATION: MIC, agar dilution
Assay type: cell-based
EXPERIMENTAL_CONTEXT: Neisseria gonorrhoeae, ciprofloxacin-resistant
ENDPOINT_NAME: MIC (µg/mL)
The reply should be a number in µg/mL, with the unit left off.

Use these answered entries as a reference point.
| GIVEN_SMILES | MIC [µg/mL] |
| --- | --- |
| O=c1oc2ccc(F)cc2c2[nH]c(CN[C@H]3CC[C@H](n4c(=O)cnc5ncc(F)cc54)CC3)cc12 | 0.12 |
| Cl.O=c1oc2ccc(F)cc2c2[nH]c(CN[C@H]3CC[C@H](n4c(=O)ccc5ccc(F)cc54)CC3)cc12 | 0.03 |
| Cl.N#Cc1ccc2ccc(=O)n([C@H]3CC[C@H](NCc4cc5c(=O)oc6ccc(F)cc6c5[nH]4)CC3)c2c1 | 0.06 |

## Task Reported MIC, compound `O=C1COc2ncc(F)cc2N1[C@H]1CC[C@H](NCc2cc3c(=O)oc4ccc(F)cc4c3[nH]2)CC1` : ____
## Result 0.12

## Task Please give the result for `COc1cnc2ncc(=O)n([C@H]3CC[C@H](NCc4cc5c(=O)oc6ccc(F)cc6c5[nH]4)CC3)c2c1` too.
## Result 0.25

## Task What do you have for `Cl.O=c1oc2ccc(F)cc2c2[nH]c(CN[C@H]3CC[C@H](n4c(=O)ccc5ncc(F)cc54)CC3)cc12` ?
## Result 0.016
